# assayed system: THR beta-LBD (Homo sapiens)
# Construct: THR beta-LBD (the final concentration is 0.5 nM) was added to the 384-well assay plate; purchased Invitrogen PV4686
# Sequence (P10828 217-461 limits assumed): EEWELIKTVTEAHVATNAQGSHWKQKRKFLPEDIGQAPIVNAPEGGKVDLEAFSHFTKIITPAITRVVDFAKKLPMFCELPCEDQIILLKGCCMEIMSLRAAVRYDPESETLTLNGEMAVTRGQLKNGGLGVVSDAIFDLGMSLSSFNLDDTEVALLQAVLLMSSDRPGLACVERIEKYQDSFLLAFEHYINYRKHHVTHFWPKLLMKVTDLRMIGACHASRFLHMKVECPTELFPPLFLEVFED
# protocol description: THR-β Coactivator Peptide Recruitment Assay (LanthaScreen TR-FRET)
# Type: biochemical
# condition details: TR-FRET coactivator recruitment, THR beta-LBD 0.5 nM; read-out: THRβ EC50
pEC50: −log10 of the molar value.
Each entry below lists one item and its recorded pEC50 value.

Reference set (5 entries):
| given smiles | measured metric | result |
| --- | --- | --- |
| O=C(N1CCC1)C1(NS(=O)(=O)c2cc(Oc3c(Cl)cc(-n4nc(C(F)F)c(=O)[nH]c4=O)cc3Cl)ccc2O)CC1 | pEC50 | 7.70 to 8.70 |
| O=c1[nH]c(=O)n(-c2cc(Cl)c(Oc3cc(S(=O)(=O)NC4CC(F)(F)C4)c(O)cn3)c(Cl)c2)nc1C(F)F | pEC50 | > 8.70 |
| CS(=O)(=O)N[C@H]1CCN(S(=O)(=O)c2cc(Oc3c(Cl)cc(-n4nc(C(F)F)c(=O)[nH]c4=O)cc3Cl)ccc2O)C1 | pEC50 | > 8.70 |
| N#Cc1nn(-c2cc(Cl)c(Oc3cc(S(=O)(=O)C4CC4)c(O)cn3)c(Cl)c2)c(=O)[nH]c1=O | pEC50 | 7.70 to 8.70 |
| O=c1[nH]c(=O)n(-c2cc(Cl)c(Oc3ccc(O)c(S(=O)(=O)NC4CS(=O)(=O)C4)c3)c(Cl)c2)nc1C(F)F | pEC50 | > 8.70 |

Simply: O=c1[nH]c(=O)n(-c2cc(Cl)c(Oc3ccc(O)c(S(=O)(=O)N4CC(O)C4)c3)c(Cl)c2)nc1C(F)F , THR beta-LBD (Homo sapiens), pEC50 = > 8.70

----------
# assayed system: THR alpha-LBD (Homo sapiens)
# Construct: except that THR alpha-LBD of a final concentration 0.25 nM was used; purchased Invitrogen PV4687
# Sequence (P10827 163-410 isoform P10827-2 limits assumed, other chains not shown): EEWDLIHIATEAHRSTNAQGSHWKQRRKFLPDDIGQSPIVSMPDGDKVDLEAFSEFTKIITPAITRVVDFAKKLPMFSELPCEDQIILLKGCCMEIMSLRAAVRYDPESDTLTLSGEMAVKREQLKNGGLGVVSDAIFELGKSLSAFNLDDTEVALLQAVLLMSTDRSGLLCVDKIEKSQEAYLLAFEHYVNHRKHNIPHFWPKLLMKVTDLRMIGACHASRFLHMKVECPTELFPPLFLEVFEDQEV
# protocol description: THR-α Coactivator Peptide Recruitment Assay (LanthaScreen TR-FRET)
# Format: biochemical
# condition details: TR-FRET coactivator recruitment, THR alpha-LBD 0.25 nM
measured metric: THRα Emax

// worked examples, THRα Emax included
| molecule | assayed system | measured metric | result |
| --- | --- | --- | --- |
| O=C(NC12CC3(F)CC(F)(CC(F)(C3)C1)C2)c1cc(Oc2c(Cl)cc(-n3nc(C(F)F)c(=O)[nH]c3=O)cc2Cl)ccc1O [Compound 6] | THR alpha-LBD (Homo sapiens) | THRα Emax | B (40~85) |
| NC(=O)CNS(=O)(=O)c1cc(Oc2c(Cl)cc(-n3nc(C(F)F)c(=O)[nH]c3=O)cc2Cl)ccc1O [Compound 58] | THR alpha-LBD (Homo sapiens) | THRα Emax | A (85~110) |
| O=c1[nH]c(=O)n(-c2cc(Cl)c(Oc3cc(S(=O)(=O)NC45CCC(O)(CC4)C5)c(O)cn3)c(Cl)c2)nc1C(F)F [Compound 160] | THR alpha-LBD (Homo sapiens) | THRα Emax | B (40~85) |
| Cc1nn(-c2cc(Cl)c(Oc3cc(S(=O)(=O)N[C@H]4CCOC4)c(O)cn3)c(Cl)c2)c(=O)[nH]c1=O [Compound 164] | THR alpha-LBD (Homo sapiens) | THRα Emax | B (40~85) |
| O=c1[nH]c(=O)n(-c2cc(Cl)c(Oc3cc(S(=O)(=O)NC4CCC4)c(O)cn3)c(Cl)c2)nc1C(F)F [Compound 123] | THR alpha-LBD (Homo sapiens) | THRα Emax | A (85~110) |

Now examine the next entry.
# THRα Emax (molecule: O=c1[nH]c(=O)n(-c2cc(Cl)c(Oc3cc(S(=O)(=O)NC45CCC(O)(C4)C5)c(O)cn3)c(Cl)c2)nc1C(F)F [Compound 159] ) is B (40~85)
